target: hNaV1.4 (Homo sapiens); assay: no-wash sodium influx assay (ANG-2 with quencher Ponceau 4R), FLIPR; settings: hNaV1.4, response to veratridine 60 μM; read-out: IC50 (reduction of fluorescence response)
Sequence (P35499 whole entry): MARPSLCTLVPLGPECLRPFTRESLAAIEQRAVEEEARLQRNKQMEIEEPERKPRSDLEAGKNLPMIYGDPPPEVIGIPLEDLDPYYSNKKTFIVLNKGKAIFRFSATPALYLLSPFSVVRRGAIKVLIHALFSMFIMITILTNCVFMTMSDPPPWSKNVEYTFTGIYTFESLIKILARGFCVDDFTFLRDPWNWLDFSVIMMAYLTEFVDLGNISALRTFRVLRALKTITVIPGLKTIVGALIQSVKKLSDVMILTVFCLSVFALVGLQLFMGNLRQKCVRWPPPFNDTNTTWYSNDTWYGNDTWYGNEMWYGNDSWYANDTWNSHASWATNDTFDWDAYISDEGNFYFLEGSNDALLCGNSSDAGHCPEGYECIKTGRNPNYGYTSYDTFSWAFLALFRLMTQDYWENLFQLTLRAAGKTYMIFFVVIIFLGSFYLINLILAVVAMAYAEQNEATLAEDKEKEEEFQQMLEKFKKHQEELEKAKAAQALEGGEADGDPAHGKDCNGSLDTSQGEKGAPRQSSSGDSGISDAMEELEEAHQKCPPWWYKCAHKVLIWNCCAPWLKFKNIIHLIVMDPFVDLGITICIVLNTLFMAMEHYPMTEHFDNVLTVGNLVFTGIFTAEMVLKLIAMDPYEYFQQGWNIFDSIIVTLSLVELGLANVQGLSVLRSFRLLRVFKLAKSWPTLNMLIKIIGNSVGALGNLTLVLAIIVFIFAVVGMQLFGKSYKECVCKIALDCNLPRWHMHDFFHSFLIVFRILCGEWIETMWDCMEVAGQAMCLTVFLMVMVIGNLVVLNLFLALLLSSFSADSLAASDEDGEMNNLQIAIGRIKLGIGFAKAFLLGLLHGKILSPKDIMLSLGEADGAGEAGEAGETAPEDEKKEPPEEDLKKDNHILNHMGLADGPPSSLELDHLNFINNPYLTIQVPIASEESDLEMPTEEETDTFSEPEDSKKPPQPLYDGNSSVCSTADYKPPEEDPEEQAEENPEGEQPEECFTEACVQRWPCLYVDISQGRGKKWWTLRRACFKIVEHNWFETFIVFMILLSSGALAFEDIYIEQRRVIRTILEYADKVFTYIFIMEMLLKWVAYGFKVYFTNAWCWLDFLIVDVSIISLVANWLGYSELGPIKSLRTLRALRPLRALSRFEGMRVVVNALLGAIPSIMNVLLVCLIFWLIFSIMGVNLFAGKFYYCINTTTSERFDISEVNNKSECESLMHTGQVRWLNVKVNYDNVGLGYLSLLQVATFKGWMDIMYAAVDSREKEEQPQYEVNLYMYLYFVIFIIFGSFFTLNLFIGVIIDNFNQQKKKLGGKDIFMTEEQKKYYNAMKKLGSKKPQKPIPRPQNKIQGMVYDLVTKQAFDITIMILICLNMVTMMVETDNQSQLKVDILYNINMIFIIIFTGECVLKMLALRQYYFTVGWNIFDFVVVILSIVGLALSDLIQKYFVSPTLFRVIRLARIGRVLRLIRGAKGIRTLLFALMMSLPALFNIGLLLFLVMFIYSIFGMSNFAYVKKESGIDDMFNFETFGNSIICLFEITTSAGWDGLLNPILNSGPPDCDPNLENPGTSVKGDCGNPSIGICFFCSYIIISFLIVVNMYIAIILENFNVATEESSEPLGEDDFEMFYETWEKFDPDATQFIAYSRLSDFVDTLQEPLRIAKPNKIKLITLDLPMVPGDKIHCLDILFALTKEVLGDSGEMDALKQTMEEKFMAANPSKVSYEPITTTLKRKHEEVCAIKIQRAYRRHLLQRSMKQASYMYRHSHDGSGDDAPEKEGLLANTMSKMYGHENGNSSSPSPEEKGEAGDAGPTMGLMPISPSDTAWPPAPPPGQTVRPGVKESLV
Parameter Measured: pIC50
Kindly note that pIC50 refers to -log10 of the concentration in mol/L and answer with the value alone.

Problem: Would you mind telling me what pIC50 value was observed for CCCCNc1ccc(C(=O)OCCN(C)C)cc1 [tetracaine] ?
Result: 4.89

====

biological target: TRPV4 (Homo sapiens); construct: endogenous in cells; assay: FLIPR calcium dye assay in MDA-MB-468 breast cancer cells; type: cell-based; conditions: MDA-MB-468 cells, fluo-4 with Amaranth 1 mM; read-out: EC50 (increase in intracellular calcium)
Parameter Measured: pEC50
Kindly note that pEC50 refers to -log10 of the concentration in mol/L and answer with the value alone.

Problem: Would you mind telling me what pEC50 value was observed for CC(C)C[C@H](NC(=O)c1cc2ccccc2s1)C(=O)N1CCN(C(=O)[C@H](CO)NS(=O)(=O)c2ccc(Cl)cc2Cl)CC1 [GSK1016790A] ?
Result: 7.15

====

molecular target: hNaV1.8 (Homo sapiens, UniProt Q9Y5Y9); construct: host or cells: HEK293; assay: no-wash sodium influx assay (ANG-2 with quencher Ponceau 4R), FLIPR; type: cell-based; conditions: Tetracaine pIC50, hNaV1.8, 5 min pre-incubation, then deltamethrin 150 μM
Sequence (Q9Y5Y9 whole entry): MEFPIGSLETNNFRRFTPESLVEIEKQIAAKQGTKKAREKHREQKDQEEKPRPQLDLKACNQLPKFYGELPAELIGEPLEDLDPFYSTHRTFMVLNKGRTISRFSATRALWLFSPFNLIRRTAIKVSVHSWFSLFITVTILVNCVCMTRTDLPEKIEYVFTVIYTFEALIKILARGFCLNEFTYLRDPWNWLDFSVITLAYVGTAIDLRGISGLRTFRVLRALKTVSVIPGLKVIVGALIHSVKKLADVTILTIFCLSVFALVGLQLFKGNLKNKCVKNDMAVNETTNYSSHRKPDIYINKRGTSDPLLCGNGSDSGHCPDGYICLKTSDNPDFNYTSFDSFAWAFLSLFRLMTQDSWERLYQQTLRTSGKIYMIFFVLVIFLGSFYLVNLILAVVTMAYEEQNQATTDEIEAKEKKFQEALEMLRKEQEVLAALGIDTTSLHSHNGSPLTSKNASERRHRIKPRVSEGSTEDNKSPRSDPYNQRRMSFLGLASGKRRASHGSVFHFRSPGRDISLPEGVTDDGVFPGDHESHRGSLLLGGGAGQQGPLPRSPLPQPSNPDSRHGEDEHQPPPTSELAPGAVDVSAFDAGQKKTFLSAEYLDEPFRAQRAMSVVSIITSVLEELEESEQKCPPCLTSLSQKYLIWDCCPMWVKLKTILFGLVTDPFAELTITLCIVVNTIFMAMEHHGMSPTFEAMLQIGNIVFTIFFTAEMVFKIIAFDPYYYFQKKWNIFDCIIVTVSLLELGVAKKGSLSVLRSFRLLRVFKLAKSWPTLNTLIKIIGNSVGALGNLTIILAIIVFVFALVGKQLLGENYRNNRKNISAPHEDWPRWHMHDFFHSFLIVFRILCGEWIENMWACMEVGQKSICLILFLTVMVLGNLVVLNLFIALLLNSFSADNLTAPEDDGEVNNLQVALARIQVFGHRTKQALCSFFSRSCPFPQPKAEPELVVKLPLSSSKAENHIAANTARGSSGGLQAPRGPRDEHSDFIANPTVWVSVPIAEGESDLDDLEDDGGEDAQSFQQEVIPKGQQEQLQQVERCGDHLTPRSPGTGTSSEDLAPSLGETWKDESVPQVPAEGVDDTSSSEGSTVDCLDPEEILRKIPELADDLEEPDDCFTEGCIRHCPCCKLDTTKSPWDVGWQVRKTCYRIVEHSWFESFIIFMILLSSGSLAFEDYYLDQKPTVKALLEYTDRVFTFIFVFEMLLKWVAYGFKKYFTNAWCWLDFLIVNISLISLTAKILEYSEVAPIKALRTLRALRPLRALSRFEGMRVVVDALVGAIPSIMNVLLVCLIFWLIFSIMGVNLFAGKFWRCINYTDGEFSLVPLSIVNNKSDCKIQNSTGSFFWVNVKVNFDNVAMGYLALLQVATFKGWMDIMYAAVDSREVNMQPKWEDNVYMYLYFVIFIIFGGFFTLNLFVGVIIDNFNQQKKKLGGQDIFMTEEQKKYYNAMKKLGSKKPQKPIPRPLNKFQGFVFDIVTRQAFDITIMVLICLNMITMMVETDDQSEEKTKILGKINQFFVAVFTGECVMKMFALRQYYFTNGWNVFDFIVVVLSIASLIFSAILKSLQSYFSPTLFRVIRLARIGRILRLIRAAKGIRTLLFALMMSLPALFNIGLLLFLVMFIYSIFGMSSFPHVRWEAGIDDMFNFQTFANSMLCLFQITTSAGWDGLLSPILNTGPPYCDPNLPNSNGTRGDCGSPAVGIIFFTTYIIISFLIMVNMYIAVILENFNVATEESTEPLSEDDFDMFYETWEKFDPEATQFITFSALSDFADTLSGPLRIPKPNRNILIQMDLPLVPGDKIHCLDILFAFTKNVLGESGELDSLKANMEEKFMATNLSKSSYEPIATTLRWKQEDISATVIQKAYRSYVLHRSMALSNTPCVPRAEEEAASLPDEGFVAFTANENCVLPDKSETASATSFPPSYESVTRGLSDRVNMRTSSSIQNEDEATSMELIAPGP
Parameter Measured: IC50 (µM)
All answers are understood in µM, so give the number only.

Problem: Would you mind telling me what IC50 value was observed for CCCCNc1ccc(C(=O)OCCN(C)C)cc1 ?
Result: 6.61

====

target: TRPV4 (Homo sapiens, UniProt Q9HBA0); construct: endogenous in cells; experiment: FLIPR calcium dye assay in MDA-MB-468 breast cancer cells; format: cell-based; settings: MDA-MB-468 cells, FLIPR Calcium 4 no-wash dye; read-out: EC50 (increase in intracellular calcium)
Sequence (Q9HBA0 whole entry): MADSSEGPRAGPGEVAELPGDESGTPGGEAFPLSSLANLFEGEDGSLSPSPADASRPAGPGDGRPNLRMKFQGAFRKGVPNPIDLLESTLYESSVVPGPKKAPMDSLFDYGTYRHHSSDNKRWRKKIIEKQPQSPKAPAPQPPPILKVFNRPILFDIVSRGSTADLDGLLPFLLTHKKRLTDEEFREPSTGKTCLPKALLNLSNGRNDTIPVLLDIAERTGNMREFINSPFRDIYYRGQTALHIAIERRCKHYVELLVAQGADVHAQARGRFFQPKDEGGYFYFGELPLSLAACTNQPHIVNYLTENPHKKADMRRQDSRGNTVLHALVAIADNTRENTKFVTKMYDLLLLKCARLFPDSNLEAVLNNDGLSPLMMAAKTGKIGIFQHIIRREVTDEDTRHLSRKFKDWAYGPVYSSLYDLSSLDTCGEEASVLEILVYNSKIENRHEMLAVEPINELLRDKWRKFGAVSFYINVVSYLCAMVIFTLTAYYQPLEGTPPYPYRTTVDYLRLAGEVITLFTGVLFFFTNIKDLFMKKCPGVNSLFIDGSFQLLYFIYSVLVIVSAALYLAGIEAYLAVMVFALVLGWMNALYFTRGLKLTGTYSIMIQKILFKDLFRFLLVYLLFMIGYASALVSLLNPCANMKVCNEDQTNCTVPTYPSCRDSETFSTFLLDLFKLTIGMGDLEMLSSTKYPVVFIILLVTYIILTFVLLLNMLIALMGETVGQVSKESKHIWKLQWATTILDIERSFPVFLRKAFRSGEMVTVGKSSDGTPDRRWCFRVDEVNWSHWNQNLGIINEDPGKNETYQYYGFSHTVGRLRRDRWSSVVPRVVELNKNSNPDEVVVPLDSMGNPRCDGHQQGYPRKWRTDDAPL
Parameter Measured: EC50 (nM)
All answers are understood in nM, so give the number only.

Problem: Would you mind telling me what EC50 value was observed for CC(C)C[C@H](NC(=O)c1cc2ccccc2s1)C(=O)N1CCN(C(=O)[C@H](CO)NS(=O)(=O)c2ccc(Cl)cc2Cl)CC1 [GSK1016790A] ?
Result: 80

====

biological target: TRPV4 (Homo sapiens, UniProt Q9HBA0); construct: endogenous in cells; test: FLIPR calcium dye assay in MDA-MB-468 breast cancer cells; type: cell-based; conditions: MDA-MB-468 cells, fluo-4 with Ponceau 4R 1 mM; read-out: EC50 (increase in intracellular calcium)
Parameter Measured: EC50
Provide the measurement as a number trailed by its unit.

Problem: Would you mind telling me what EC50 value was observed for CC(C)C[C@H](NC(=O)c1cc2ccccc2s1)C(=O)N1CCN(C(=O)[C@H](CO)NS(=O)(=O)c2ccc(Cl)cc2Cl)CC1 [GSK1016790A] ?
Result: 0.074 µM

====

target: hNaV1.1 (Homo sapiens); experiment: no-wash sodium influx assay (ANG-2 with quencher Ponceau 4R), FLIPR; details: hNaV1.1, response to veratridine 60 μM; read-out: IC50 (reduction of fluorescence response)
Parameter Measured: pIC50
Kindly note that pIC50 refers to -log10 of the concentration in mol/L and answer with the value alone.

Problem: Would you mind telling me what pIC50 value was observed for CCCCNc1ccc(C(=O)OCCN(C)C)cc1 [tetracaine] ?
Result: 4.28
